# System: S. pneumoniae ATCC 49619
# experiment description: MIC against S. pneumoniae ATCC 49619
# Type: cell-based
# run conditions: Streptococcus pneumoniae, ATCC49619, S. pneumoniae ATCC 49619; read-out: MIC
log10(MIC): recorded values
Quick note: numbers are log10 of MIC, with µg/mL as the unit.

// below: answered molecules
{"columns": ["molecule", "log10(MIC)"],
 "data": [
  ["CCC[C@@H]1C[C@@H](C(=O)N[C@H]([C@H](C)NC(=O)CN)[C@H]2OC(SC)[C@H](O)C(O)C2O)N(C)C1 (some centres unmarked)", 0.90],
  ["CCC[C@@H]1C[C@@H](C(=O)N[C@H](COC(=O)Nc2ccccc2)[C@H]2OC(SC)[C@H](O)C(O)C2O)N(C)C1 (some centres unmarked)", 1.20],
  ["CCC[C@@H]1C[C@@H](C(=O)N[C@H]([C@H](C)NC(=O)CNC)[C@H]2OC(SC)[C@H](O)C(O)C2O)N(C)C1 (some centres unmarked) [FSA-215078a]", 1.20],
  ["CCC[C@@H]1C[C@@H](C(=O)N[C@H]([C@H](C)NC(=N)N)[C@H]2OC(SC)[C@H](O)C(O)C2O)N(C)C1 (some centres unmarked)", 0.90],
  ["CCC[C@@H]1C[C@@H](C(=O)N[C@H](CNCC(F)(F)F)[C@H]2OC(SC)[C@H](O)C(O)C2O)N(C)C1 (some centres unmarked)", 1.20],
  ["CCC[C@@H]1C[C@@H](C(=O)N[C@H]([C@H](C)NC2CC2)[C@H]2OC(SC)[C@H](O)C(O)C2O)N(C)C1 (some centres unmarked) [FSA-215028c]", 1.20],
  ["CCC[C@@H]1C[C@@H](C(=O)N[C@H]([C@H](C)N)[C@H]2OC(SC)[C@H](O)C(O)C2O)N(C)C1 (stereo partly drawn) [FSA-215049, 7-(S)-deoxyaminolincomycin]", 0.90],
  ["C=C[C@@H](NC(=O)[C@@H]1C[C@@H](CCC)CN1C)[C@H]1OC(SC)[C@H](O)C(O)C1O (some centres unmarked)", 0.30]
]}

Exam item: Please respond with reported log10(MIC) (system S. pneumoniae ATCC 49619) for CCC[C@@H]1C[C@@H](C(=O)N[C@H](CN(C)c2ccc(-c3cccnc3)cc2)[C@H]2OC(SC)[C@H](O)C(O)C2O)N(C)C1 (some centres unmarked) .
Marked response: 1.81

Exam item: Please respond with reported log10(MIC) (system S. pneumoniae ATCC 49619) for CCC[C@@H]1C[C@@H](C(=O)N[C@@H]([C@H]2OC(SC)[C@H](O)C(O)C2O)[C@H](C)N(C)C)N(C)C1 (some centres unmarked) .
Marked response: 1.20

Exam item: Please respond with reported log10(MIC) (system S. pneumoniae ATCC 49619) for CCC[C@@H]1C[C@@H](C(=O)N[C@H]([C@H](C)NC)[C@H]2OC(SC)[C@H](O)C(O)C2O)N(C)C1 (some centres unmarked) .
Marked response: 1.20

Exam item: Please respond with reported log10(MIC) (system S. pneumoniae ATCC 49619) for CCC[C@@H]1C[C@@H](C(=O)N[C@H](Cn2cc(-c3ccnc(N)n3)nn2)[C@H]2OC(SC)[C@H](O)C(O)C2O)N(C)C1 (some centres unmarked) .
Marked response: 0.30

Exam item: Please respond with reported log10(MIC) (system S. pneumoniae ATCC 49619) for CCC[C@@H]1C[C@@H](C(=O)N[C@H]([C@H](C)NCc2ccc(F)cc2)[C@H]2OC(SC)[C@H](O)C(O)C2O)N(C)C1 (some centres unmarked) [FSA-215025d] .
Marked response: 0.30

Exam item: Please respond with reported log10(MIC) (system S. pneumoniae ATCC 49619) for CCC[C@@H]1C[C@@H](C(=O)N[C@H](CNc2ccc(-c3cccnc3)cc2)[C@H]2OC(SC)[C@H](O)C(O)C2O)N(C)C1 (some centres unmarked) .
Marked response: 0.90

Exam item: Please respond with reported log10(MIC) (system S. pneumoniae ATCC 49619) for C=CC(C)(C)[C@@H](NC(=O)[C@@H]1C[C@@H](CCC)CN1C)[C@H]1OC(SC)[C@H](O)C(O)C1O (some centres unmarked) .
Marked response: -0.30
